Each recorded value in this set is attributed to patent US20260015341A1.

Target: PI3Kα[WT]/[E542K]/[E545K]/[H1047R]/PI3Kβ/γ/δ
Assay: PI3K enzyme activity assay (ADP-Glo)
Format: biochemical
Conditions: PI3K kinase reaction, isoform not given
property-measured: IC50

Worked examples, 3 compounds total:
• COC(=O)c1nc(Cl)ccc1N[C@H](C)c1cc(C)cc2c(=O)n(C)c(-c3ccncc3)nc12 = < 1000 nM
• Cc1cc([C@@H](C)Nc2ccccc2C(=O)O)c2nc(N3CCC(C)(C)CC3)[nH]c(=O)c2c1 = 1000 to 5000 nM
• Cc1cc([C@@H](C)Nc2ccccc2C(=O)O)c2nc(-c3ccc(F)cc3F)n(C)c(=O)c2c1 = < 1000 nM

Next:
IN: Quickly give me recorded IC50 for Cc1ccc(N[C@H](C)c2cc(C)cc3c(=O)n(C)c(-c4c(F)cccc4F)nc23)c(C(=O)O)c1
OUT: < 1000 nM
